Reported pIC50 on Dipeptidyl peptidase 4 (Homo sapiens) for assorted molecules, compiled from publications.
pIC50: −log10 of the molar value.
attribute-measured: pIC50

>>> observed("N#C[C@@H]1CCCN1C(=O)CNCCNc1nccc(C(F)(F)F)n1")
6.54

(I) Cc1cccc(C2(CN)CCC(N3CCn4c(nnc4C(F)(F)F)C3)C2)c1 (centres unmarked)
(II) CC(C)[C@H](NC(=O)OCc1ccc(NC(=O)[C@@H]2CC(F)(F)CN2C(=O)CNC(=O)c2ccnc3ccccc23)cc1)C(=O)N1CCC[C@H]1B(O)O
(III) Cc1ccnc([C@]2(CN)CC[C@@H](N3CCn4c(nnc4C(F)(F)F)C3)CC2)c1
(IV) CC(C)=CCC/C(C)=C/CCC1=C[C@@H](c2ccccc2)OC1=O
(V) CCNCC(=O)N1CCCC1B(O)O (centres unmarked)
Rank by pIC50 (largest to smallest). Response format: the labels, sorted as the prompt asks.
III, II, I, IV, V
